Molecular target: Human immunodeficiency virus type 1 reverse transcriptase (Human immunodeficiency virus 1, UniProt Q72547)
# maps each entry to its pIC50
FYI, pIC50 means -log10 of a concentration in mol per litre.

CCN1c2ncc(CCc3ccccc3N)cc2C(=O)N(C)c2cccnc21 :: 7.10
CCN1c2ncc(CCc3ccnc(CO)c3)cc2C(=O)N(C)c2ccc(Cl)nc21 :: 6.80
CCN1c2ncc(CCc3cccc(C)c3)cc2C(=O)N(C)c2ccc(Cl)nc21 :: 6.96
CCN1c2ncc(N)cc2C(=O)N(C)c2cccnc21 :: 7.00
CCN1c2ncc(CCc3ccc4ccccc4c3)cc2C(=O)N(C)c2cccnc21 :: 7.10

Quick one: pIC50 for CCN1c2ncc(CCc3ccc(C)cc3)cc2C(=O)N(C)c2cccnc21 ? 7.00

Look at this compound and give its reported pIC50. CCN1c2ncc(CCCc3ccccc3)cc2C(=O)N(C)c2cccnc21 6.92

Data request, read-out pIC50, for CCN1c2ncc(CCC(=O)OC)cc2C(=O)N(C)c2cccnc21 7.05

Look at this compound and give its reported pIC50. CCN1c2ncc(CCc3ccnc(C(=O)OC)c3)cc2C(=O)N(C)c2ccc(Cl)nc21 6.82

###

Target: UniProt Q72547
recorded.metric: IC50 (nM)
# number only, unit nM dropped from output

CCN1c2ncccc2C(=O)N(C)c2cccnc21 :: 90

// fetch UniProt Q72547 IC50 for CCN1c2ncc(CCc3cccnc3)cc2C(=O)N(C)c2cccnc21 130

What value of IC50 on UniProt Q72547 does CCN1c2ncc(CCc3cccc(NC(N)=O)c3)cc2C(=O)N(C)c2ccc(Cl)nc21 have? 60

Which IC50 is reported with UniProt Q72547 for this entry: CCN1c2ncc(CCc3ccncc3)cc2C(=O)N(C)c2ccc(I)nc21 ? 90

State its IC50 on UniProt Q72547: CCN1c2ncc(CCc3cccc(C)c3)cc2C(=O)N(C)c2cccnc21 110

Requested read-out IC50, target or system UniProt Q72547, entry CCN1c2ncc(CCc3ccc(N)cc3)cc2C(=O)N(C)c2ccc(Cl)nc21 160

Lab note: need IC50 for CCN1c2ncc(Cl)cc2C(=O)N(C)c2cccnc21 on UniProt Q72547, anyone have it? 540

Provide the documented IC50 with UniProt Q72547 as the system for CCN1c2ncc(CCc3cncnc3)cc2C(=O)N(C)c2cccnc21 540

###

Entries and their pIC50 values follow.
Target: Human immunodeficiency virus type 1 reverse transcriptase (Human immunodeficiency virus 1, UniProt Q72547, Y181C)
Experiment: Inhibitory activity against HIV-1 Y181C reverse transcriptase.
pIC50: −log10 of the molar value.

CCN1c2ncc(C)cc2C(=O)N(C)c2cccnc21 :: < 6.00
CCN1c2ncc(/C=C/c3ccncc3)cc2C(=O)N(C)c2cccnc21 :: < 6.00

Next item in the queue.
Fill blank: measured pIC50 of the compound CCN1c2ncc(-c3cccc(OC)c3)cc2C(=O)N(C)c2cccnc21 is ____. < 6.00

###

Target: Human immunodeficiency virus type 1 reverse transcriptase (Human immunodeficiency virus 1)
Assay: Inhibitory activity against HIV-1 wild-type reverse transcriptase.
recorded.metric: pIC50
Scale explanation: pIC50 corresponds to minus log10 of a concentration expressed in moles per litre.

Quick check: pIC50 of CCN1c2ncc(CCc3ccnc(C(=O)O)c3)cc2C(=O)N(C)c2ccc(Cl)nc21 ? 5.82

Suppose we examine the compound CCN1c2ncc(CCc3ccc(N)cc3)cc2C(=O)N(C)c2cccnc21 ; what pIC50 value has been reported? 7.22

Returns the measured pIC50 for the input compound. Input: CCN1c2ncc(CCc3nccs3)cc2C(=O)N(C)c2cccnc21 7.40

So what's the measured pIC50 for this one? CCN1c2ncc(CCc3cccc(N)c3)cc2C(=O)N(C)c2ccc(Cl)nc21 6.92

Sample CCN1c2ncc(CCc3ccnc(C)c3)cc2C(=O)N(C)c2ccc(Cl)nc21 — what was its pIC50? 7.22

Query: pIC50; subject: CCN1c2ncc(CCc3cccc(F)c3)cc2C(=O)N(C)c2cccnc21 6.92

Sample CCN1c2ncc(C)cc2C(=O)N(C)c2cccnc21 — what was its pIC50? 6.12

Quick one: pIC50 for CCN1c2ncc(CCc3ccccc3)cc2C(=O)N(C)c2ccc(C3=CCC=N3)nc21 ? 6.23
